- assay-comment: Displacement of [3H]DPDPE from human recombinant delta opioid receptor expressed in CHO cells by liquid scintillation counting
property-measured: pKi
One number for each entry, as −log10 of the molar value.

Entry `COc1ccc2c3c1O[C@H]1C(=O)CC[C@@]4(NC/C=C/c5ccc(Cl)cc5)[C@@H](C2)N(CC2CC2)CC[C@]314` — recorded pKi = 7.35

---

- system: Delta-type opioid receptor (Homo sapiens)
- Sequence (P41143 whole entry): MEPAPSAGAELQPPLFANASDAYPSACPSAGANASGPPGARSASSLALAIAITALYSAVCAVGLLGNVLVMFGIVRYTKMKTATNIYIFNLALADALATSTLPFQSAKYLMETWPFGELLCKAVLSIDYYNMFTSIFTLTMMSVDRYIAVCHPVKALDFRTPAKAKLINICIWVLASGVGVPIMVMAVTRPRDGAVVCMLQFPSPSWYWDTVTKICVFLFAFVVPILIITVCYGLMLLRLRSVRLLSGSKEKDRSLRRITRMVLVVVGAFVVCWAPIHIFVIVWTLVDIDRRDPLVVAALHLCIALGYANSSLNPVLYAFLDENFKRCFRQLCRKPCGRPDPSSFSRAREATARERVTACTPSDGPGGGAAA
- assay-comment: Displacement of [3H]DPDPE from human recombinant delta opioid receptor expressed in CHO cells by liquid scintillation counting
pKi: −log10 of the molar value.
Class met: pKi at least 8. Class not met: pKi below 8.

Look over these answered cases.
>>> class_label("O=C(C#Cc1ccccc1)N[C@@]12CCC(=O)[C@@H]3Oc4c(O)ccc5c4[C@@]31CCN(CC1CC1)[C@@H]2C5")
"met"
>>> class_label("COc1ccc2c3c1O[C@H]1C(=O)CC[C@@]4(NC(=O)C#Cc5ccc(Cl)cc5)[C@@H](C2)N(CC2CC2)CC[C@]314")
"not met"
>>> class_label("O=C1CC[C@@]2(NCC#Cc3ccc(Cl)cc3)[C@H]3Cc4ccc(O)c5c4[C@@]2(CCN3CC2CC2)[C@H]1O5")
"met"
>>> class_label("COc1ccc2c3c1O[C@H]1C(=O)CC[C@@]4(NC(=O)C#Cc5ccccc5)[C@@H](C2)N(CC2CC2)CC[C@]314")
"not met"
>>> class_label("COc1ccc2c3c1O[C@H]1C(=O)CC[C@@]4(NCC#Cc5ccc(Cl)cc5)[C@@H](C2)N(CC2CC2)CC[C@]314")
"not met"

In the following, a different molecule is considered.
Form field: pKi at least 8? Entry: `O=C(C#Cc1ccc(Cl)cc1)N[C@@]12CCC(=O)[C@@H]3Oc4c(O)ccc5c4[C@@]31CCN(CC1CC1)[C@@H]2C5`
met

---

Field: Ki. Provide a value for each of the molecules that follow.
- system: Kappa-type opioid receptor (Homo sapiens, UniProt P41145)
- Sequence (P41145 whole entry): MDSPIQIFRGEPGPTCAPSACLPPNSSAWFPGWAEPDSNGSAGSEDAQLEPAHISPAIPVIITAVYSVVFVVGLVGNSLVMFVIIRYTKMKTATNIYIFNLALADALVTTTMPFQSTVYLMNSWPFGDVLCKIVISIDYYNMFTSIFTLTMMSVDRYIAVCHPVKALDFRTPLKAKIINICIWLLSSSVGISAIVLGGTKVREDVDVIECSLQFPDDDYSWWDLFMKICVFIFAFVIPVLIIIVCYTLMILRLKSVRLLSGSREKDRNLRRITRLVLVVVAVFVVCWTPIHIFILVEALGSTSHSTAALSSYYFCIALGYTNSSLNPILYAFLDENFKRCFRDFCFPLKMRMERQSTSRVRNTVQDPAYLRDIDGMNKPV
- assay-comment: Displacement of [3H]U69593 from human recombinant kappa opioid receptor expressed in CHO cells by liquid scintillation counting

>>> value_reported("COc1ccc2c3c1O[C@H]1C(=O)CC[C@@]4(NC/C=C/c5ccc(Cl)cc5)[C@@H](C2)N(CC2CC2)CC[C@]314")
"53.6 nM"
>>> value_reported("COc1ccc2c3c1O[C@H]1C(=O)CC[C@@]4(NC(=O)C#Cc5ccc(Cl)cc5)[C@@H](C2)N(CC2CC2)CC[C@]314")
"13.7 nM"
>>> value_reported("O=C1CC[C@@]2(NCC#Cc3ccc(Cl)cc3)[C@H]3Cc4ccc(O)c5c4[C@@]2(CCN3CC2CC2)[C@H]1O5")
"2.89 nM"
>>> value_reported("COc1ccc2c3c1O[C@H]1C(=O)CC[C@@]4(NCC#Cc5ccc(Cl)cc5)[C@@H](C2)N(CC2CC2)CC[C@]314")
"74.4 nM"
>>> value_reported("COc1ccc2c3c1O[C@H]1C(=O)CC[C@@]4(NC(=O)C#Cc5ccccc5)[C@@H](C2)N(CC2CC2)CC[C@]314")
"7.86 nM"

Count: 2. Required value per item: Ki.
1. O=C(C#Cc1ccc(Cl)cc1)N[C@@]12CCC(=O)[C@@H]3Oc4c(O)ccc5c4[C@@]31CCN(CC1CC1)[C@@H]2C5
2. O=C(C#Cc1ccccc1)N[C@@]12CCC(=O)[C@@H]3Oc4c(O)ccc5c4[C@@]31CCN(CC1CC1)[C@@H]2C5

["2.73 nM", "1.12 nM"]

---

- system: Mu-type opioid receptor (Homo sapiens, UniProt P35372)
- Sequence (P35372 whole entry): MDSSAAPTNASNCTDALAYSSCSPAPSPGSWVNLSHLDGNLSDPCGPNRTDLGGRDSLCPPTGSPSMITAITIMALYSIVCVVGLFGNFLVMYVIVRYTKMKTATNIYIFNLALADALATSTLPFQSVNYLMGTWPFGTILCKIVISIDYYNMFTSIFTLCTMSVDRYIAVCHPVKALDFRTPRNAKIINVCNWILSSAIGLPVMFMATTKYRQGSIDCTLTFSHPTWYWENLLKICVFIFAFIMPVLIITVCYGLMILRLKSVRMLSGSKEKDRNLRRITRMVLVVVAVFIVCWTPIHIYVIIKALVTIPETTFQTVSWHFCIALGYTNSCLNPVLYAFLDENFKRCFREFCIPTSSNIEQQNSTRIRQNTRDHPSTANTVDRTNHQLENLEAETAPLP
- assay-comment: Displacement of [3H]DAMGO from human recombinant mu opioid receptor expressed in CHO cells by liquid scintillation counting
property-measured: pKi
Answers are plain numbers, as −log10 of the molar value.

Example entries and their recorded answers appear below.
>>> value_reported("O=C(C#Cc1ccc(Cl)cc1)N[C@@]12CCC(=O)[C@@H]3Oc4c(O)ccc5c4[C@@]31CCN(CC1CC1)[C@@H]2C5")
8.43
>>> value_reported("COc1ccc2c3c1O[C@H]1C(=O)CC[C@@]4(NC/C=C/c5ccc(Cl)cc5)[C@@H](C2)N(CC2CC2)CC[C@]314")
9.15
>>> value_reported("COc1ccc2c3c1O[C@H]1C(=O)CC[C@@]4(NC(=O)C#Cc5ccccc5)[C@@H](C2)N(CC2CC2)CC[C@]314")
8.84
>>> value_reported("COc1ccc2c3c1O[C@H]1C(=O)CC[C@@]4(NCC#Cc5ccc(Cl)cc5)[C@@H](C2)N(CC2CC2)CC[C@]314")
8.01

Count: 3. Required value per item: pKi.
1. COc1ccc2c3c1O[C@H]1C(=O)CC[C@@]4(NC(=O)C#Cc5ccc(Cl)cc5)[C@@H](C2)N(CC2CC2)CC[C@]314
2. O=C1CC[C@@]2(NCC#Cc3ccc(Cl)cc3)[C@H]3Cc4ccc(O)c5c4[C@@]2(CCN3CC2CC2)[C@H]1O5
3. O=C(C#Cc1ccccc1)N[C@@]12CCC(=O)[C@@H]3Oc4c(O)ccc5c4[C@@]31CCN(CC1CC1)[C@@H]2C5

1: 8.13; 2: 9.01; 3: 8.88
